Value source: PubChem BioAssay (NCATS)

target: Lysosomal acid glucosylceramidase (Homo sapiens); assay: Glucocerebrosidase-p2 (AID 348); conditions: purified GBA, blue fluorogenic substrate, 40 min; further: potency means the concentration at half of the fitted maximal effect
Activity calls are given as the source filed them. No stated cut-off is given here; in the data, active means potency below about 10 µM; inactive means the rest.
Pick from active, inactive when you respond.

COc1ccc(C(=O)N2CCC[C@@]3(CCN(C(=O)Nc4ccccc4)C3)C2)cc1 :: inactive
CN1CCN(c2ncnc3ccc(-c4ccc(C(=O)N(C)C)cc4)cc23)CC1 :: inactive
COc1ccc(CNc2ncnc3ccc(-c4cccc(NS(C)(=O)=O)c4)cc23)c(OC)c1 :: inactive

Query: Returns: the outcome recorded for `COc1ccccc1CN1CCC2(CC1)CCN(C(C)=O)CC2` in this assay.
Result: inactive

Query: How was `COc1ncc2nc(-c3cccs3)c(=O)n(CCc3ccccc3)c2n1` classified in this test?
Result: inactive

Query: Call for entry `O=C(c1cc(C(F)(F)F)cc(C(F)(F)F)c1)N1CCC2(CC1)CN(c1ccccn1)C2` :
Result: active

Query: For `Cc1noc(C)c1C(=O)N1CCC2(CC1)CN(c1ccccc1)C2` , which call appears in the assay record?
Result: inactive

Query: Tell me the recorded outcome of this test for `CN1CCN(c2nc(-c3ccccc3C(F)(F)F)nc3ccccc23)CC1` .
Result: inactive

Query: In this assay, the call recorded for `O=C(c1cnccn1)N1CCC[C@@]2(CCN(C(c3ccccc3)c3ccccc3)C2)C1` was what?
Result: inactive

Query: Could you check what this test reported for `CN(C)c1ccc(-c2ccc3ncnc(N4CCNCC4)c3c2)cc1` ?
Result: inactive

* * *

test: qHTS drug screen for cell cycle checkpoint inhibitors in PARPi-resistant BRCA-mutant ovarian cancer cell lines. (AID 1963452); details: PEO1/OlaR viability, CellTiter-Glo luminescence, 96 h; stronger effect = lower value
measured quantity: Z-AUC
Numbers only.

These recorded examples may help you get a feel for the data.
O=C(NCc1ccccc1)[C@H](Cc1ccccc1)NC(=O)[C@H]1O[C@@H]1C(=O)NCCc1ccc(O)cc1 :: 1.49
Cc1nc2cccc(N)c2c(=O)n1C1CCC(=O)NC1=O (stereo not drawn) :: 1.24
O=C(/C=C\n1cnc(-c2cc(C(F)(F)F)cc(C(F)(F)F)c2)n1)NNc1cnccn1 :: -0.586

I need Z-AUC for every entry listed below, if you could help.
1. C[C@@H](O)[C@@H]1NC(=O)[C@H](CCCCN)NC(=O)[C@@H](Cc2c[nH]c3ccccc23)NC(=O)[C@H](Cc2ccccc2)NC(=O)[C@@H](NC(=O)[C@H](N)Cc2ccccc2)CSSC[C@@H](C(=O)N[C@H](CO)[C@@H](C)O)NC1=O
2. Cc1cc(C)c(S(=O)(=O)N(CCc2cccc(Br)c2)Cc2ccc(-c3cccc(S(C)(=O)=O)c3)cc2)c(C)c1
3. CC1(C)OC2=C(C(=O)c3ccccc3C2=O)[C@H](NCc2ccccc2)[C@@H]1O

Result:
1. 0.896
2. 0.662
3. 0.63

Respectfully, I request Z-AUC for each entry included below.
1. CCCNC(=O)c1cn2ncnc(Nc3cc(C(=O)NC4CC4)ccc3C)c2c1C
2. C=C1CCC[C@]2(C)C=C3OC(=O)C(C)=C3C[C@@H]12

Result:
1: -0.306; 2: 0.206

* * *

experiment: Secretion counterscreen for inhibitors of the SERCaMP assay screened against the NCATS CANVASS Library (AID 1347390); settings: SH-SY5Y constitutive GLuc secretion, luminescence, 20 h; series mostly up to 76.6 µM;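 further: light from luciferase secreted into medium read as a measure of general secretion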; further: potency means the concentration at half of the fitted maximal effect
Inconclusive results are not listed. Calls of active or inactive are those of the source. The call rests on the fitted dose curve; in most records, active means well fitted inhibition curve with a large enough effect; inconclusive means small, poorly fitted or top-dose-only effect; inactive means no such curve, though single readings can be large or run the other way.
measured quantity: Potency

Check out these entries, answers already filled in.
C=CC(CCCCC)C1C(=O)NC(=O)C1C(=O)C1C(/C=C/C)C=CC2CC(C(=O)O)CC(C)C21 (stereo unspecified) :: inactive
C=C1C[C@H]2O[C@@H]3[C@@H]4[C@H](CC[C@@](C)(O)[C@@H]42)[C@H](C)COC3(C)[C@@H](OC(=O)CCCCCCC)CC1=O (stereo partly specified) :: 48.4 µM (active)
C[C@@]12C[C@@H](C[C@@H]3C(=O)O[C@@H](c4ccoc4)[C@H](OC(=O)c4ccccc4)[C@@H]31)OC2=O :: inactive
C=CC(CCCCC)C1C(=O)NC(=O)C1C(=O)C1C2C(C)CC(C(=O)O)CC2CC1(O)C(=O)/C=C/C (stereo unspecified) :: inactive
CCC(C)=C1OC(=O)[C@H](C)[C@H](O)[C@H](Cc2cccnc2)NC(=O)C(NC(=O)c2ncccc2O)C(C)OC1=O (stereo partly specified) :: inactive

Would you mind listing Potency for each of the following compounds?
1. COc1c(O)cc(O)c2c(=O)cc(-c3ccccc3)oc12
2. C=C[C@](Cl)(CBr)CCC=C(C)C
3. COc1cc2c(cc1OC)[C@@H](c1ccc3c(c1)OCO3)C(C)C(C)C2=O (stereo partly specified)
4. C/C=C(/C)c1c(Cl)c(OC)c(C)c2c1Oc1c(Cl)c(O)c(Cl)c(C)c1C(=O)O2
5. C[C@@]12CCC[C@@](C)(C(=O)OP(=O)(O)OC[C@H]3O[C@@H](n4cnc5c(N)ncnc54)[C@H](O)[C@@H]3O)[C@H]1C[C@@H](O)[C@@]13C[C@@H](CC[C@@H]21)[C@](C)(O)C3
6. C/C(=C\[C@H](C)C(=O)C[C@H](O)CC1CC(=O)NC(=O)C1)[C@@H]1OC(=O)CCCC/C=C/[C@@H](O)C[C@@H]1C
7. O=C1CCC(=O)N(O)CCCCCNC(=O)CCC(=O)N(O)CCCCCNC(=O)CCC(=O)N(O)CCCCCN1

Result:
inactive
inactive
inactive
inactive
inactive
9.65 µM (active)
inactive

Respectfully, I request Potency for each entry included below.
1. CN1CC[C@]23c4ccccc4N[C@H]1[C@]21CCN(C)[C@H]3Nc2ccccc21
2. C=C1CCC2C(C)(C(=O)O)CCC(CC/C(C)=C/C(=O)NC(CCC(N)=O)C(=O)O)[C@@]2(C)C1 (stereo partly specified)
3. O=c1cc(-c2ccc(O)cc2)oc2cc(O)c([C@@H]3OC(CO)[C@H](O)[C@@H](O)[C@H]3O)c(O)c12 (stereo partly specified)

Result:
1. inactive
2. inactive
3. inactive

Query: Read the entry CC(=O)N[C@H](C)c1nc(/C=C/C=C/C(=O)CC2CC(=O)CC[C@]2(C)O)cs1 (stereo partly specified) and write its reported Potency.
Result: inactive

* * *

assay: Primary qHTS for small molecule stabilizers of the endoplasmic reticulum resident proteome: Secreted ER Calcium Modulated Protein (SERCaMP) assay (AID 1508630); conditions: SH-SY5Y GLuc-SERCaMP (Gaussia luciferase released on ER calcium loss) secretion, thapsigargin, luminescence; series mostly up to 38.4 µM
Records with an inconclusive call do not appear. Active and inactive are the calls of the source. Calls follow the shape of the dose curve; as a rule, active = well fitted inhibition curve with a large enough effect; inconclusive = small, poorly fitted or top-dose-only effect; inactive = no such curve, though single readings can be large or run the other way.
measured quantity: outcome

CS(=O)(=O)N1CCC[C@@]2(CCN(Cc3ccccc3)C2)C1 :: inactive
CC(=O)N1CCC[C@@]2(CCN(c3ncccn3)C2)C1 :: inactive
O=c1cnc2cncnc2n1Cc1ccc(F)cc1 :: inactive
COc1ccc(-n2c(=O)cnc3cnc(N4CCOCC4)nc32)cc1 :: inactive
N#Cc1cccc(-c2nc3cnc(Oc4cccc(Cl)c4)nc3n(C3CC3)c2=O)c1 :: inactive
O=c1c(-c2cc(F)cc(F)c2)nc2cncnc2n1-c1ccccc1 :: inactive

Hi, could you look up outcome for each item in my list?
1. Cc1noc(C)c1-c1nccc(N2CCOCC2)n1
2. FC(F)(F)c1cc(CN2CCCC3(CCNCC3)C2)cc(C(F)(F)F)c1
3. CCNc1ncc2nc(-c3cn(C)c4ccccc34)c(=O)n(-c3ccccc3)c2n1
4. N#Cc1ccc(CN2CCCC3(CCN(C(=O)c4cccc(F)c4)CC3)C2)cc1
5. Cc1noc(C)c1-c1cc(Nc2ccc(F)cc2)ncn1
6. c1csc(CNc2ccnc(-c3ccoc3)n2)c1
7. O=C1Nc2ccccc2C(=O)N2CCC[C@@H]12
8. Cc1nc2[nH]c(=O)[nH]c(=O)c2[nH]1

Result:
1. inactive
2. inactive
3. inactive
4. inactive
5. inactive
6. inactive
7. inactive
8. inactive

* * *

experiment: qHTS for activators of dead-cell proteases activity screened against the NCATS CANVASS Library (AID 1347392); conditions: HepG2 cytotoxicity, dead-cell protease luminescence, 5 h; series mostly up to 46.1 µM;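 further: luminescence from protease leaking out of membrane-damaged cells cleaving impermeant substrate; 0% is about no effect; rising signal means more cytotoxicity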
Results filed as inconclusive are left out. Calls of active or inactive are those of the source. The call rests on the fitted dose curve; in most records, active means well fitted curve in the direction sought with a large enough effect; inconclusive means small, poorly fitted or top-dose-only effect, or another doubt; inactive means no such curve, though single readings can be large or run the other way.
measured quantity: activation (cytotoxicity)

Would you please look over these solved cases?
C/C1=C/[C@@H](C)[C@H](O)[C@@H](O)/C=C/CC/C=C/C(=O)O[C@@H]1[C@H](C)C(=O)/C=C/CC1CC(=O)NC(=O)C1 :: inactive
COc1c(O)cc2c(c1O)C(=O)c1c(coc1C)C2=O :: inactive
C=C[C@](Cl)(CBr)CCC=C(C)C :: inactive
C/C(=C\[C@H](C)C(=O)/C=C/CC1CC(=O)NC(=O)C1)[C@@H]1OC(=O)/C=C/CC/C=C/C[C@@H](O)[C@@H]1C :: inactive
C/C1=C/[C@@H](C)[C@H](O)C/C=C/CC/C=C/C(=O)O[C@@H]1[C@H](C)C(=O)CCCC1CC(=O)NC(=O)C1 :: inactive
CC(=O)N[C@H](C)c1nc(/C=C/C=C/C(=O)CC2CC(=O)CC[C@]2(C)O)cs1 (some centres undefined) :: inactive
C=C[C@@]1(C)CC[C@@H]([C@H](C)C(=O)/C=C/C(C)(C)O)O1 :: inactive
C[C@H]1C=C[C@H]2CCCC[C@@H]2[C@H]1C(=O)[C@H]1CC2=C(C(=O)O)CCN2C1=O :: inactive

# next molecule below
Query: Give the measured activation (cytotoxicity) for `C[C@@]12CCC[C@@](C)(C(=O)O)[C@H]1CC[C@@]13C[C@@H](CC[C@H]12)[C@](C)(O)C3`
Result: inactive
